B1: ZNF277 (parent)
chain: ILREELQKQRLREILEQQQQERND

Variants of: B1
protocol_details: protein stability index of a GFP-peptide fusion (GPS, HEK-293T) (PSI 1-6); higher = more stable;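 note: lentivirally expressed fusions sorted by FACS into six bins by GFP to DsRed ratio, PSI derived from sequencing read proportions per bin multiplied by bin number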
test_conditions: c terminus: a fixed tail appended
Exercise: state measured protein stability index for each of the variants provided.

Would you please look over these solved cases?
R10P
4.83
N23Y
3.56
E4D
4.06
L6M
3.89
R22G
4.67

List the reported protein stability index of each variant below.
1. N23G
2. I14N
3. Q19F
4. L11N
5. L11T
6. L6I
7. Q7D
8. D24E

Data returned:
[3.98, 4.46, 2.91, 4.76, 4.66, 4.56, 4.26, 4.12]

Return reported protein stability index values for all items listed beneath this line.
1. Q17H
2. L2D
3. L15F
4. I1V
5. L6D

Data returned:
1: 4.38; 2: 5.63; 3: 4.22; 4: 4.4; 5: 4.76

Where these numbers come from: the supplement of paper PMC10567573
